- experimental_target: Receptor tyrosine-protein kinase erbB-2 (Homo sapiens) (UniProt P04626)
- Sequence (P04626 whole entry, looked up): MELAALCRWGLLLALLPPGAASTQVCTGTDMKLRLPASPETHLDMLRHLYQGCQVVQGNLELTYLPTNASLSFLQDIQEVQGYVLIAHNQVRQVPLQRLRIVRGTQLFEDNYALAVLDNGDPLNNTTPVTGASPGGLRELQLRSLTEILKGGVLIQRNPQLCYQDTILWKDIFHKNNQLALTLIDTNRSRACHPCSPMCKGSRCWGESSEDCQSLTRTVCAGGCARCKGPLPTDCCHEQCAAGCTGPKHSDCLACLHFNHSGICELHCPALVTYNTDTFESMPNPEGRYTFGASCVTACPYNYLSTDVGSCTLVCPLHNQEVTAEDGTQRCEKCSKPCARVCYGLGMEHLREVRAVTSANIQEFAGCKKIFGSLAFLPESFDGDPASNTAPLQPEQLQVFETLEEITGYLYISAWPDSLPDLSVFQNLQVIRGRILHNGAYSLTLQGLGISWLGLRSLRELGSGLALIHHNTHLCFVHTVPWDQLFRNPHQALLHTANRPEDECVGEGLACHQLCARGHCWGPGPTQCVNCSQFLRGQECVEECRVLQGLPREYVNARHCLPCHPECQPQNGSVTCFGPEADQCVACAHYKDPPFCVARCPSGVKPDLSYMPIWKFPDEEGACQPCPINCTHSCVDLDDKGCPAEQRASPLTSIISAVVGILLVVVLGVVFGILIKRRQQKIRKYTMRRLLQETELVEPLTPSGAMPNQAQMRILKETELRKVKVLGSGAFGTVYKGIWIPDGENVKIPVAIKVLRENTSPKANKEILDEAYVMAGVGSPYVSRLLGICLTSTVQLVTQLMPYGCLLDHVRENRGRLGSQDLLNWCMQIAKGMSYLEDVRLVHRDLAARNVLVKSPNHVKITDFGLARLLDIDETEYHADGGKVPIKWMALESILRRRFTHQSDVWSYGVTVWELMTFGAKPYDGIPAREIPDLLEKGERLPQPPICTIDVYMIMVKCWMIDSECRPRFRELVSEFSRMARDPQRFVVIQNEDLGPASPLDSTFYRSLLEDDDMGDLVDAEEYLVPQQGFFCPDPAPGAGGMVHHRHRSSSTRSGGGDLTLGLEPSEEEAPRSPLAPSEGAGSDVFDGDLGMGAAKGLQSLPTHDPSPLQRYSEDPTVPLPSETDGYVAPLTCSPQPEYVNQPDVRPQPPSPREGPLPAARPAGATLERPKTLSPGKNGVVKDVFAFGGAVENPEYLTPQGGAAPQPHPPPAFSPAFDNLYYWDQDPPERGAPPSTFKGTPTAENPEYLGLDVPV
- assay_explanation: Her2 expression decrease, cell viability multiplex – SKBR3 breast tumor cells, AlphaScreen, ATP viability, primary screen (AID 461);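 note: lower value means less Her2 protein in the cells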
- conditions: 18-24 h, at 10 µM, stronger effect = lower value
Entries and their Her2 level
measured_metric: Her2 level (%)

COC(=O)Cc1cc(=O)[nH]c(Nc2nc3ccccc3o2)n1 ... 99.5
CCOC(=O)c1ccc(NC(=O)Cn2cc3c(n2)CCC(C)C3)cc1 (configuration not stated) ... 92
Cc1c(NC(=O)c2noc3c2CCc2ccccc2-3)c(=O)n(-c2ccccc2)n1C ... 97.5
CN1CCN(C2=C(Cl)C(=O)N(c3cccc(Cl)c3)C2=O)CC1 ... 96.5
CCOc1ccc(Cn2nnc(C(=O)Nc3ccc(OC)cc3OC)c2N)cc1 ... 102
COC(=O)CN1C(=O)CC(C)(C)S(=O)c2ccccc21 (configuration not stated) ... 110
O=C(NCCCN1CCOCC1)c1cc(-c2ccc(O)cc2)on1 ... 87.5
COc1cc(NC(=O)CN(c2cc(C)cc(C)c2)S(=O)(=O)c2c(C)noc2C)cc(OC)c1 ... 108
CCN1CCN(Cc2nc3c(c(=O)n(C)c(=O)n3C)n2CC(=O)c2ccccc2)CC1 ... 108
CCN(CC)c1ccc(NC(=O)CN2C(=O)CC(C)(C)S(=O)(=O)c3ccccc32)c(C)c1 ... 111
Cc1nnc2n(-c3ccc(Cl)cc3)c(=O)c3c4c(sc3n12)CN(C)CC4 ... 98
Cc1nc2ccc(S(=O)(=O)NC(C(=O)NCc3cccs3)C(C)C)cc2s1 (configuration not stated) ... 116
C/C=C/Cn1c(SCCCc2ccccc2)nc2c1c(=O)[nH]c(=O)n2C ... 72
CC1Cc2nc(SCC(N)=O)n(Cc3ccccc3)c(=O)c2S1 (configuration not stated) ... 100
CCSc1nnc(N2C(=O)CC(c3ccsc3)C3=C2CC(C)(C)CC3=O)s1 (configuration not stated) ... 108
O=C(NCCC1=CCCCC1)C1CCN(S(=O)(=O)c2cccc3cccnc23)CC1 ... 96
Cn1c(=O)c2c(nc(SCCOc3ccc4ccc(=O)oc4c3)n2C)n(C)c1=O ... 91.5
C=CCSc1nc2sc(C)c(C)c2c(=O)[nH]1 ... 107
O=C(c1ccc2nc(N3CCCCC3)sc2c1)N1CCN(c2ccccn2)CC1 ... 102
CCOC(=O)N1CCC(N2C(=O)c3ccccc3C2Nc2cc(Cl)c(OC)cc2OC)CC1 (configuration not stated) ... 114
COc1ccccc1N1CCN(CC(O)c2ccc3cc[nH]c3c2)CC1 (configuration not stated) ... 112
CC(=O)NC(C)c1nc2ccccc2n1C(C)C (configuration not stated) ... 106

====

- assay_explanation: doxorubicin toxicity protection in MRP-1 cells – H69AR cells, CellTiter-Glo, duplicate, MRP-1 activator project, pilot screen (AID 807);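 note: compound pretreatment 18-22 h then 72 h combined with doxorubicin; 0% = doxorubicin alone and 100% = vehicle without doxorubicin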
- conditions: H69AR viability with doxorubicin, CellTiter-Glo luminescence; at 10 µM; stronger effect = higher value
measured_metric: viability increase (%)

COc1cccc2cc(C(=O)N3CCN(c4ccc(C)cc4C)CC3)c(=O)oc12 ... -2.99
CCOC(=O)c1ccccc1NC(=O)c1cccnc1 ... 0.06
O=C(CC1Oc2ccc(Cl)cc2NC1=O)NC1CCCCCC1 (configuration not stated) ... -1.05
CCOC(=O)c1csc(NC(=O)C2CCCCC2)n1 ... 2.52
Cc1cc(=O)[nH]c(SCC(=O)NCCOc2ccccc2)n1 ... -0.09
CCN(CCNC(=O)C1CCN(S(=O)(=O)c2cccc3cccnc23)CC1)c1ccccc1 ... 1.51
COc1ccccc1NC(=O)CSc1nnc(Cc2cccn2C)n1-c1ccc(F)cc1 ... -4.45
O=C(Cn1c(=O)sc2ccccc21)NCCOc1ccccc1F ... -0.76
CC(C)(C)SCCNC(=O)COc1ccccc1 ... 0.03
COc1ccccc1CNC(=O)c1cnc2ccccn2c1=O ... -0.15
COc1ccc(OCCCC(=O)Nc2nncs2)cc1 ... -0.07
O=C(Nc1c(F)cc(F)cc1Br)c1cc(-c2ccc(O)cc2)on1 ... -4.92

====

Listing: viability of selected compounds
- assay_explanation: MRP1 drug-resistance reversers in H69AR cells – cell-based, doxorubicin co-treatment, pilot screen (AID 601)
- conditions: H69AR cells, CellTiter-Glo, 72 h; compound alone cytotoxicity; at 10 µM
measured_metric: viability

CN1CCN(Cc2nc3c(c(=O)[nH]c(=O)n3C)n2CCc2ccccc2)CC1 ... 93%
O=C(Cn1nc(Cc2cccnc2)c2ccccc2c1=O)Nc1ccc2c(c1)OCO2 ... 85.2%
COc1ccccc1-c1nnc(SCC(=O)NC2CCCCC2)o1 ... 87.8%
Cc1cccnc1-n1c(CCN2C(=O)c3ccccc3C2=O)nc2ccccc2c1=O ... 95.1%
COc1cccc(C2CC(c3ccc(C)cc3)Nc3nc(N)nn32)c1 (stereo unspecified) ... 97.9%
CCOc1ccc(NC(=O)CSc2nnc(COc3c(C)cccc3C)o2)cc1 ... 80.6%

====

- assay_explanation: S. cerevisiae growth inhibition in restrictive medium, OD615, pilot screen, restrictive growth control, yeast lifespan reduction project (AID 706);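 note: modified DeaD lifespan yeast strain shifted to restrictive glucose medium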
- conditions: OD615, 48 h, at 10 µM, stronger effect = higher value
growth inhibition: recorded values
measured_metric: growth inhibition (%)

CCOc1ccc(-n2nnc3c(=O)n(CC(=O)N4CCCc5ccccc54)cnc32)cc1 ... -10.2
CCC1CCCCN1Cc1ccc(OC)c(OC)c1 (configuration not stated) ... -8.04
CC(CC(=O)NC1CCSC1=O)c1ccccc1 (configuration not stated) ... 6.91
CCOC(=O)Cc1nnc(NC(=O)c2ccccc2OCC)s1 ... -14.8
CCOc1ccc2nc(Nc3nc4c(c(=O)[nH]3)CCC4)nc(C)c2c1 ... 9.05
CCOC(=O)/C(C#N)=C(/C)c1ccc(OC)cc1 ... -5.52
C=CCSc1nc2sc(C)c(C)c2c(=O)[nH]1 ... -12.2

====

- assay_explanation: growth suppression of yeast trafficking mutant, preliminary HTS, modulators of trafficking downstream of Golgi apparatus project, 1536-format plate, OD 615 nm (AID 637)
- conditions: yeast transport mutant growth, absorbance 615 nm, 18 h; stronger effect = higher value
measured_metric: inhibition (%)

CC1CCCN(C(=O)c2cc3c(-c4ccc(Cl)cc4)nn(C)c3s2)C1 (stereo not drawn) ... 3
CC(=O)c1cccc(NC(=O)CCNS(=O)(=O)c2cccc3nsnc23)c1 ... 6.19
CCOC(=O)c1cc2c(=O)n3ccccc3nc2n(CCCOC)c1=NC(C)=O ... -0.48
O=C(COc1ccc(=O)n(-c2ccccc2)n1)Nc1ccccc1 ... 0.82
CC(CCc1ccccc1)NC(=O)C1CCCN(c2nnc(-n3cccc3)s2)C1 (stereo not drawn) ... -3.17
CCC1CCCCN1CCNS(=O)(=O)c1ccc2c(c1)oc(=O)n2C (stereo not drawn) ... 0.67
Cn1c(=O)oc2cc(S(=O)(=O)N3CCN(c4ccccn4)CC3)ccc21 ... -3.67
Cc1nn(C(=O)c2ccc3c(c2)OCO3)c(N)c1-c1ccccc1 ... 2.13
CCOC(=O)N1CCC(NC(=O)c2cc3c(=O)n(C)c4ccccc4c3n2C)CC1 ... -1.17
Cc1cccc(C)c1OCc1nnc(SCC(=O)Nc2ccccc2F)o1 ... -5.17
CCCCCn1c(=O)[nH]c2cc(C(=O)NCCCN3CCCCC3)ccc2c1=O ... 5.33
Cc1ccc(-c2oc3ccccc3c(=O)c2O)cc1 ... -1.17
Cc1ccc(N(C)C(=O)N2CCN(c3ccccn3)CC2)cc1 ... -0.5
Cc1cccc(-n2ncc3c(NCCCn4ccnc4)ncnc32)c1 ... -3.67
O=C1NC2(Nc3ccccc31)C(=O)Nc1ccccc12 (stereo not drawn) ... -3.44
CCCCn1c(CNC(=O)CCC)nc2ccccc21 ... -4.67
O=C1c2ccccc2C(Nc2ccc(F)cc2F)N1CCN1CCOCC1 (stereo not drawn) ... 3.17
COc1cc2c(cc1OC)CN(C(=O)CSc1nc3[nH]ncc3c(=O)n1-c1ccccc1)CC2 ... -2.62
Cc1ccc(N(C(=O)c2ccncc2)C2C=CS(=O)(=O)C2)cc1 (stereo not drawn) ... 7.33
COc1ccc(C2CC(c3cccc(C)c3)n3ncnc3N2)cc1 (stereo not drawn) ... -9.02
COc1ccc(-c2nnc3sc(C(C)N4C(=O)c5ccccc5C4=O)nn23)cc1 (stereo not drawn) ... -2.67
CCOc1cccc(C(=O)N2CCCCC2c2cccnc2)c1 (stereo not drawn) ... -1.13
O=C(Cc1cccs1)Nc1ccccc1NC(=O)Cc1cccs1 ... -7.83

====

- assay_explanation: doxorubicin toxicity protection in MRP-1 cells – H69AR cells, CellTiter-Glo, duplicate, MRP-1 activator project, pilot screen (AID 807);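 note: compound pretreatment 18-22 h then 72 h combined with doxorubicin; 0% = doxorubicin alone and 100% = vehicle without doxorubicin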
- conditions: H69AR viability with doxorubicin, CellTiter-Glo luminescence; at 10 µM; stronger effect = higher value
measured_metric: viability increase (%)

CCCCOc1ccccc1NC(=O)CC1Nc2ccccc2NC1=O (stereo unspecified) ... -6.18
CCOc1ccc(NC(=O)CCN2CCN(c3ccccc3)CC2)cc1 ... -3.89
Cc1ccc(S(=O)(=O)NCCOC(=O)Nc2sc(=S)n(C)c2C)cc1 ... -3.78
CCN(CCCNS(=O)(=O)c1ccc2c(c1)oc(=O)n2C)c1cccc(C)c1 ... -3.21
Cc1cc(C)cc(NC(=O)CSc2nnc(Cn3c(=O)sc4ccccc43)n2C)c1 ... -2.93
COC(=O)c1ccc(NC(=O)C2C3CCC(C3)C2C(=O)O)cc1 (stereo unspecified) ... -2.31
CCOC(=O)c1sc(NC(=O)c2noc3c2CCCC3)c(C(=O)OCC)c1C ... -3.88
CC1=C(C(N)=O)C(c2ccncc2)n2nc(-c3ccccc3Cl)nc2N1 (stereo unspecified) ... -0.22
CCCn1c(NCc2cc(C)ccc2O)nc2ccccc21 ... -4.6
COc1ccc(CNc2nc3c(c(=O)[nH]c(=O)n3C)n2Cc2ccccc2C)cc1 ... -4.3
Cc1nnc(SCCn2c(N3CCCC(C)C3)nc3c2c(=O)n(C)c(=O)n3C)s1 (stereo unspecified) ... -3.23

Data provenance: PubChem BioAssay
